- assayText: Cytotoxicity against human HUVEC cells assessed as inhibition of cell growth incubated for 72 hrs by celltiter-glo assay
- Type: toxicity, cell-based
measure: IC50 at 72 h (nM)

# entrySmiles, recordedMeasurement
records = [
    ("C[C@@H](Oc1cc(-n2cnc3ccc(CN4CCN(C)CC4)cc32)sc1C(N)=O)c1ccccc1C(F)(F)F", 7),
]
